Known growth of a selection of compounds
System: BT-549 breast
Assay: NCI-60 one-dose screen, 48 h (100 = growth as untreated, 0 = no growth, -100 = all killed)
Conditions: 10 µM
The panel holds about 83,000 compounds, 20% with a hit somewhere; the sample as a whole holds those more often.
readout: growth (%)

compound	resultUnit	testResult
CC[C@@H](C(=O)[C@H](C)[C@H](O)[C@@H](C)[C@H]1O[C@H]([C@@H](CC)C(=O)N(CC)CC)CC[C@H]1C)C1O[C@]2(C=C[C@@H](O)[C@]3(CC[C@@](C)([C@H]4CC[C@](O)(CC)[C@H](C)O4)O3)O2)[C@H](C)C[C@@H]1C (stereo partly drawn)	%	37.1
O=C(COc1cccc(/C=C2\CSc3ccc(Cl)cc3C2=O)c1)c1ccc(Cl)cc1	%	20.2
C[C@@H](O)[C@H]1C(=O)N2C(C(=O)O)=C(SCCN=CN)C[C@H]12	%	18.9
COc1cc(-c2nn(-c3cccc(NC(=O)CCN4CCN(Cc5ccccc5)CC4)c3)cc2-c2ccncc2)ccc1Cl	%	42.7
CC(C)c1cc(N=O)cc(C(C)C)c1O	%	111
Nc1ccc(CC[C@H]2CCC/C=C/[C@@H]3C[C@H](O)C[C@H]3[C@H](O)/C=C/C(=O)O2)cc1	%	11.6
Cc1ccccc1N1C(=O)c2cc(S(N)(=O)=O)c(Cl)cc2NC1C (stereo not drawn)	%	96.6
CC1=CC2C(C(O)CC3(C)C2CC(C)C32OCOC23COCO3)C2(C)C/C(=C/O)C(=O)C=C12 (stereo not drawn)	%	51.2

====

Test system: NCI-H460 lung
Assay: NCI-60 one-dose screen, 48 h (100 = growth as untreated, 0 = no growth, -100 = all killed)
Settings: 10 µM
The panel holds about 83,000 compounds, 20% with a hit somewhere; the sample as a whole holds those more often.
As shown below, each of these compounds has a reported growth value.
readout: growth (%)

>>> print(df.to_string())
                                    compound  subjectoftest  readout  resultunit  testresult
 0  C[C@@H](C[C@H](CCO)c1ccccc1)c1ccc2ccccc2c1  NCI-H460 lung   growth           %       -48.5
 1  CC(C)[N+]1(C)C2CC[C@@H]1CC(OC(=O)C(CO)c1ccccc1)C2 (stereo partly specified)  NCI-H460 lung   growth           %         108
 2       Cc1ccc(S(=O)(=O)N(C)CCCCCC(=O)O)cc1  NCI-H460 lung   growth           %         107
 3  O=C(/C=C/C=C/c1c(C2CC2)nc2ccccc2c1-c1ccc(F)cc1)c1cccs1  NCI-H460 lung   growth           %       -7.38
 4             O=C1CSC(=S)N1/N=C/c1ccc(Cl)s1  NCI-H460 lung   growth           %         107
 5  COC1OC(COS(=O)OC)C(O)C(O)C1OS(=O)OC (stereo unspecified)  NCI-H460 lung   growth           %         101
 6  COc1cc2c3c(n(C4CCNCC4)c(=O)c2cc1OC)-c1cc2c(cc1C3=O)OCO2  NCI-H460 lung   growth           %       -66.2
 7  COc1cc(-c2ccc[nH]2)[nH]c1/C=C1\N=C(C)C(C(=O)NC(C)C)=C1C  NCI-H460 lung   growth           %        9.93
 8              O=[N+]([O-])c1ccc2ncccc2c1Cl  NCI-H460 lung   growth           %        93.1
 9  COc1ccc(-c2csc(NC(=O)c3ccc(Cc4n[nH]c(=O)c5cccnc45)cc3)n2)cc1  NCI-H460 lung   growth           %        97.4
10           Brc1ccc2c(c1)-c1ccccc1C1=NCCN12  NCI-H460 lung   growth           %       -47.4

====

Test system: NCI-H23 lung
Assay: NCI-60 one-dose screen, 48 h
Details: 10 µM
This is part of a sample that, as a whole, favours compounds with a hit. Of some 83,000 tested, about 20% had one in any assay. Activity calls are given as the source filed them. Rule for the calls: active = growth percent below 10; inactive = the rest.
Labels: active, inactive

                                   molecule  subjectoftest  qualitativelabel
0  CC1CCCC(C(=O)O)C1C(=O)O (stereo not given)   NCI-H23 lung          inactive
1  COc1ccc(/C=C2\CCCC3=C2N=C2SC(C)=CN2C3c2ccc(OC)cc2)cc1 (stereo not given)   NCI-H23 lung          inactive
2  CNS(=O)(=O)Oc1ccc(-c2sc3cc(OS(=O)(=O)NC)ccc3c2C(=O)c2ccc(OCCN3CCCCC3)cc2)cc1   NCI-H23 lung          inactive
3  COc1ccc(C(=O)CSc2nc(-c3cc(OC)ccc3OC)cc(-c3ccc(OC)cc3)c2C#N)cc1   NCI-H23 lung          inactive
4    CCn1c(SC/C(=N/O)c2ccccc2)nnc1-c1ccccc1   NCI-H23 lung          inactive
5  COc1ccc(-c2cc(-c3ccc(OC)c(OC)c3)nc(SCCCC(=O)NO)n2)cc1   NCI-H23 lung            active
6  N#Cc1c(-c2ccc(Cl)cc2)cc(-c2cc(O)ccc2O)nc1N   NCI-H23 lung          inactive
7               COc1cccc(N=Nc2cccc(OC)c2)c1   NCI-H23 lung          inactive
8  CN(C)CCCOc1ccccc1NC1=C(Cl)C(=O)C(Nc2ccccc2OCCCN(C)C)=C(Cl)C1=O   NCI-H23 lung            active
9                    O=S(=O)(O)c1ccc(Cl)cc1   NCI-H23 lung          inactive

====

Test system: A549/ATCC NSCLC
Assay: NCI-60 one-dose screen, 48 h (100 = growth as untreated, 0 = no growth, -100 = all killed)
Settings: 10 µM
Compounds without any hit were thinned out: in the full panel of roughly 83,000, 20% have a hit.
readout: growth (%)

>>> df
                                    molecule  testresult
 0  CCOC(=O)/C(=C(\C)N)C1CC(=O)NC1=O (configuration not stated)         101
 1                  Cc1cccc(N=Cc2ccccc2O)c1C        88.2
 2  COc1cc(Cc2cc(-c3ccccc3)n[nH]c2=O)cc(OC)c1OC        53.5
 3  NC(N)=N/N=C(\c1ccccc1)C(O)c1ccccc1 (configuration not stated)         102
 4  CCOC(=O)c1cc(C(=O)c2ccc(OC)c(OC)c2)n2ccncc12        99.3
 5                       S=c1cnc2ccccc2[nH]1        93.5
 6  Cc1ccc(-n2c(C)nn3c(=O)c4c5c(sc4nc23)CN(C)CC5)cc1        73.7
 7  C[C@@H](O)[C@H]1C(=O)N2C(C(=O)O)=C(SC3CN[C@H](C(=O)N(C)C)C3)[C@H](C)[C@H]12 (some centres not stated)        96.6
 8  O=C(Nc1cc(Cl)cc2c1-c1ccc(Cl)cc1C2O)C(Cl)Cl (configuration not stated)        74.5
 9  CN(C)CCCOc1ccc(OCCCN(C)C)c2c1C(=O)c1ccccc1C2=O        3.96
10  CC(=O)OC1CC2C(C)(C)CCC[C@]2(C)C2=C1C(O)=C(C(C)C)C(=O)C2=O (some centres not stated)        6.64
11  N#Cc1c(-c2ccc(Cl)cc2)csc1NC(=O)Nc1ccc(Cl)c(C(F)(F)F)c1        18.3
12  CCOC(=O)c1cc(C(=O)c2ccc(OC)c(OC)c2)n2c1ccc1ccc3cccnc3c12        36.8
13  COc1cc(C(=O)n2nc(-c3cc(OC)c(OC)c(OC)c3)nc2N)cc(OC)c1OC        98.5
14  COc1ccc(-c2nnc(SCC(=O)Nc3ccc(C(=O)/C=C/c4ccccc4)cc3)n2-c2ccccc2)cc1OC        51.9
15  O=C(Nc1ccc(NS(=O)(=O)c2ccc(F)cc2)cc1)C12CC3CC(CC(C3)C1)C2        86.6
16  COCCn1cc(-c2nc(-c3cccnc3)cs2)c2cc(F)ccc21        90.1
17                    CC(=O)COc1ccc(Cl)cc1Cl         107
18  Cc1ccc(NCCN(C)CC(C)O)c2c(=O)c3ccc(Cl)cc3sc12 (configuration not stated)        39.6
19                   Cc1ccc(-n2nnnc2N)c(C)c1         104
20  NC1=NC(c2ccccc2)C2=C(N1)/C(=C/c1ccccc1)CCC2 (configuration not stated)          87
21  C/C(=C/CCC(C)[C@@H]1CC[C@]2(C)C3=C(CC[C@@]12C)[C@@]1(C)CCC(=O)C(C)(C)[C@@H]1CC3)C(=O)O (some centres not stated)       -56.2

Ref: PubChem BioAssay (NCI)
